test system: MOLT-4 leukemia; assay: NCI-60 one-dose screen, 48 h; settings: 10 µM unless noted
The panel holds about 83,000 compounds, 20% with a hit somewhere; the sample as a whole holds those more often. Calls of active or inactive are those of the source. The calls were made as follows: active = growth percent below 10; inactive = the rest.
API: response.call in active, inactive

[Q] Would you mind telling me which call this test gave `O=C(Nc1ccc(F)c(Cl)c1)Nc1ccc(Cl)c(Cl)c1` ?
[A] inactive

[Q] Would you mind telling me which call this test gave `Nc1no[n+]([O-])c1-c1nnc2c(n1)-c1ccccc1C2=O` ?
[A] active

[Q] Would you mind telling me which call this test gave COc1ccc(C2c3ccc4ccccc4c3Oc3ncn(CCCn4ccnc4)c(=N)c32)cc1OC (stereo unspecified) ?
[A] inactive

[Q] Would you mind telling me which call this test gave `Cc1nc(Nc2ccccn2)sc1C(=O)/C=C/c1ccc(Cl)cc1` ?
[A] inactive

[Q] Would you mind telling me which call this test gave `O=c1c2cc(F)ccc2sc2c(NCCN3CCCC3)nc3ccccc3c12` ?
[A] active

[Q] Would you mind telling me which call this test gave O=C(NN1C(=O)CSC1c1ccc(Cl)cc1)c1[nH]c2ccc(F)cc2c1-c1ccccc1 (stereo unspecified) ?
[A] inactive

* * *

tested on: IGROV1 ovarian; assay: NCI-60 one-dose screen, 48 h; details: 10 µM unless noted
Compounds without any hit were thinned out: in the full panel of roughly 83,000, 20% have a hit. Active and inactive are the calls of the source. The calls were made as follows: active = growth percent below 10; inactive = the rest.
API: response.call in active, inactive

[Q] Would you mind telling me which call this test gave `O=C(Cn1cc(COc2ncnc3c2cnn3-c2ccccc2)nn1)Nc1ccccn1` ?
[A] inactive

[Q] Would you mind telling me which call this test gave `Nc1ccc(-c2nn3c(CCC(=O)c4nc5ncccc5[nH]4)nnc3s2)c(O)c1` ?
[A] inactive

[Q] Would you mind telling me which call this test gave `CCCCc1ccc(NS(=O)(=O)c2cc3c4c(c2)CCN4C(=O)CC3)cc1` ?
[A] inactive

[Q] Would you mind telling me which call this test gave `O=C1c2ccc3c4c(ccc(c24)C(=O)N1CCCCO)C(=O)N(CCCCO)C3=O` ?
[A] inactive

[Q] Would you mind telling me which call this test gave `O=C(/C=C/c1ccccn1)c1ccc(OCc2nnc(-c3ccc(Cl)cc3)o2)cc1` ?
[A] active

[Q] Would you mind telling me which call this test gave `Nc1nc(-c2cnccn2)nn1-c1nc2ccccc2s1` ?
[A] inactive

[Q] Would you mind telling me which call this test gave COc1cc(C(C)n2cc(-c3ccccc3)nn2)ccc1OC1CCCC1 (stereo not given) ?
[A] inactive

[Q] Would you mind telling me which call this test gave COc1ccc(C(=O)C2CC2c2ccc(Cl)cc2)cc1 (stereo not given) ?
[A] inactive

[Q] Would you mind telling me which call this test gave `C1CCN(c2nc(N3CCCCC3)nc(N3CCOCC3)n2)CC1` ?
[A] inactive

[Q] Would you mind telling me which call this test gave `COC(=O)/C(CCC=C(C)C)=C1\[C@@H](OC(C)=O)C[C@@]2(C)[C@H]1C[C@@H](O)[C@H]1[C@@]3(C)CC[C@H](NCc4ccccc4)[C@@H](C)[C@@H]3CC[C@@]12C` ?
[A] inactive

[Q] Would you mind telling me which call this test gave `Cn1cc([C@@H]2Nc3ccc4[nH]ncc4c3[C@H]3[C@H]4CCC(C4)[C@H]32)c(C(F)(F)F)n1` ?
[A] inactive

[Q] Would you mind telling me which call this test gave `COc1cc(/C=C2\CN(C)C/C(=C\c3cc(CN4CCCCC4)c(O)c(OC)c3)C2=O)cc(CN2CCCCC2)c1O` ?
[A] inactive

[Q] Would you mind telling me which call this test gave `Nc1nc2c(ncn2[C@@H]2O[C@H](CS)[C@@H](O)[C@H]2O)c(=O)[nH]1` ?
[A] inactive

[Q] Would you mind telling me which call this test gave `O=c1oc2ccc(F)cc2c(=O)n1-c1ccc(Br)cc1F` ?
[A] inactive

[Q] Would you mind telling me which call this test gave `O=C(N/N=C/c1ccccc1Cl)C(=O)Nc1cccc(C(F)(F)F)c1` ?
[A] inactive

[Q] Would you mind telling me which call this test gave `COc1ccc(/C=C/C(=O)c2ccc3cc(OC)c(OC)cc3c2)cc1OC` ?
[A] inactive

[Q] Would you mind telling me which call this test gave `COc1nccc2cc3c(=O)n4c(cc5ccccc54)c(=O)n3c12` ?
[A] inactive

[Q] Would you mind telling me which call this test gave `Oc1[nH]c2ccccc2c1N=Nc1nnc2n1N=C(c1ccccc1)CS2` ?
[A] inactive

[Q] Would you mind telling me which call this test gave `COc1ccc(/C=C/C(=O)c2ccc(Nc3nc(NCCO)nc(Nc4ccc(Cl)cc4)n3)cc2)cc1` ?
[A] inactive

[Q] Would you mind telling me which call this test gave O=S(=O)(Nc1ncccn1)c1ccc(NC2Nc3nc4ccccc4nc3S2)cc1 (stereo not given) ?
[A] inactive
